meta.source: patent US20100004431A1

- tested_on: T1, CD25 (R&D systems cat. #223-2A/CF) (UniProt P01589 22-213, limits assumed)
- T1 construct: Bought soluble protein
- T1 sequence (looked up): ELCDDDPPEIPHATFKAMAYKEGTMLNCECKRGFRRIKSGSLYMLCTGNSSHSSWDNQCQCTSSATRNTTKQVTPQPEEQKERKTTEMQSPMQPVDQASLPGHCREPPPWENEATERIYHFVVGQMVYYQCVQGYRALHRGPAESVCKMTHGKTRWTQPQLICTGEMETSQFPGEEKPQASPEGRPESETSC
- procedure_summary: Biacore (SPR); antibody captured on Protein A, CD25 injected
measured_parameter: kon (M⁻¹ s⁻¹)
Numbers only; they are read as M⁻¹ s⁻¹.

Use these answered entries as a reference point.
- binder: "anti-CD25 H1L1.9 (antibody, V domains shown, Single variant in the anti-CD25 H1L1 background; also called VL S43A single variant) VH: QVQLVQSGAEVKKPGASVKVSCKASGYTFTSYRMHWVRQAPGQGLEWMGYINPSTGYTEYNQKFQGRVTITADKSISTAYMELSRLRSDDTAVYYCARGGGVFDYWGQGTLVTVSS VL: QIVLTQSPATLSLSPGERATLSCRASSSISYMHWFQQKPGQAPQLLIYTTSNLASGVPARFSGSGSGTDYTLTISSLQPEDFAVYYCHQRSTYPLTFGSGTKLEIK"
  kon [M⁻¹ s⁻¹]: "1.9e+06"
- binder: "anti-CD25 H1L1.5 (antibody, V domains shown, Single variant in the anti-CD25 H1L1 background; also called VL Q1E single variant) VH: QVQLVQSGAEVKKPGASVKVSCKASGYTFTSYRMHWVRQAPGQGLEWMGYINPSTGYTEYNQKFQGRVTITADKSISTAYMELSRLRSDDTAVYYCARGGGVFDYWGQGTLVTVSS VL: EIVLTQSPATLSLSPGERATLSCRASSSISYMHWFQQKPGQSPQLLIYTTSNLASGVPARFSGSGSGTDYTLTISSLQPEDFAVYYCHQRSTYPLTFGSGTKLEIK"
  kon [M⁻¹ s⁻¹]: "1.8e+06"
- binder: "anti-CD25 H0L0 (antibody, V domains shown, Chimeric form of the anti-TAC antibody, in IgG1 format; also called chimeric anti-CD25 H0L0; anti-TAC H0L0) VH: QVQLQQSGAELAKPGASVKMSCKASGYTFTSYRMHWVKQRPGQGLEWIGYINPSTGYTEYNQKFKDKATLTADKSSSTAYMQLSSLTFEDSAVYYCARGGGVFDYWGQGTTLTVSS VL: QIVLTQSPAIMSASPGEKVTITCSASSSISYMHWFQQKPGTSPKLWIYTTSNLASGVPARFSGSGSGTSYSLTISRMEAEDAATYYCHQRSTYPLTFGSGTKLELK"
  kon [M⁻¹ s⁻¹]: "1.6e+06"
- binder: "anti-CD25 H1L1.16 (antibody, V domains shown, Single variant in the anti-CD25 H1L1 background; also called VL F36Y single variant) VH: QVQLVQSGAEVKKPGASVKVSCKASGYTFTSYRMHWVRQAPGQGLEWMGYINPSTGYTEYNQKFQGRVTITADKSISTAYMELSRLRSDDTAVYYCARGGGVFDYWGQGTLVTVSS VL: QIVLTQSPATLSLSPGERATLSCRASSSISYMHWYQQKPGQSPQLLIYTTSNLASGVPARFSGSGSGTDYTLTISSLQPEDFAVYYCHQRSTYPLTFGSGTKLEIK"
  kon [M⁻¹ s⁻¹]: "1.6e+06"
- binder: "anti-CD25 H1L1.7 (antibody, V domains shown, Single variant in the anti-CD25 H1L1 background; also called VL Q79E single variant) VH: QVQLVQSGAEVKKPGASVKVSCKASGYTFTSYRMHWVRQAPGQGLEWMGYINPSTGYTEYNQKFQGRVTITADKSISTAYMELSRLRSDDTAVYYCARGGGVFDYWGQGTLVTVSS VL: QIVLTQSPATLSLSPGERATLSCRASSSISYMHWFQQKPGQSPQLLIYTTSNLASGVPARFSGSGSGTDYTLTISSLEPEDFAVYYCHQRSTYPLTFGSGTKLEIK"
  kon [M⁻¹ s⁻¹]: "2e+06"
- binder: "anti-CD25 H1.4L1 (antibody, V domains shown, Single variant in the anti-CD25 H1L1 background; also called VH K73T single variant) VH: QVQLVQSGAEVKKPGASVKVSCKASGYTFTSYRMHWVRQAPGQGLEWMGYINPSTGYTEYNQKFQGRVTITADTSISTAYMELSRLRSDDTAVYYCARGGGVFDYWGQGTLVTVSS VL: QIVLTQSPATLSLSPGERATLSCRASSSISYMHWFQQKPGQSPQLLIYTTSNLASGVPARFSGSGSGTDYTLTISSLQPEDFAVYYCHQRSTYPLTFGSGTKLEIK"
  kon [M⁻¹ s⁻¹]: "2e+06"
- binder: "anti-CD25 H1L1.13 (antibody, V domains shown, Single variant in the anti-CD25 H1L1 background; also called VL V58I single variant) VH: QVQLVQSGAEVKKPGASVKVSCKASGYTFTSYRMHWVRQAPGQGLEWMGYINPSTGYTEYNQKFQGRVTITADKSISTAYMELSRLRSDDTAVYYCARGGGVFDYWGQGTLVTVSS VL: QIVLTQSPATLSLSPGERATLSCRASSSISYMHWFQQKPGQSPQLLIYTTSNLASGIPARFSGSGSGTDYTLTISSLQPEDFAVYYCHQRSTYPLTFGSGTKLEIK"
  kon [M⁻¹ s⁻¹]: "1.7e+06"
- binder: "anti-CD25 H1L1.6 (antibody, V domains shown, Single variant in the anti-CD25 H1L1 background; also called VL Q45R single variant) VH: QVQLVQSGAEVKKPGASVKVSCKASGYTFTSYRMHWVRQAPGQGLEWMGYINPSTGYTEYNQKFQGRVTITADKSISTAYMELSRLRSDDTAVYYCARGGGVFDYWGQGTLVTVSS VL: QIVLTQSPATLSLSPGERATLSCRASSSISYMHWFQQKPGQSPRLLIYTTSNLASGVPARFSGSGSGTDYTLTISSLQPEDFAVYYCHQRSTYPLTFGSGTKLEIK"
  kon [M⁻¹ s⁻¹]: "1.8e+06"

Input: // query kon value for entry anti-CD25 H1.1L1 (antibody, V domains shown, Single variant in the anti-CD25 H1L1 background; also called VH A71R single variant) VH: QVQLVQSGAEVKKPGASVKVSCKASGYTFTSYRMHWVRQAPGQGLEWMGYINPSTGYTEYNQKFQGRVTITRDKSISTAYMELSRLRSDDTAVYYCARGGGVFDYWGQGTLVTVSS VL: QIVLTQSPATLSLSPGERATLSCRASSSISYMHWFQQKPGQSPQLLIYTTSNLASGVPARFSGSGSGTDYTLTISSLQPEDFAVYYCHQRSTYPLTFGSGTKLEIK
Output: 1.9e+06

Input: // query kon value for entry anti-CD25 H1L1 single variant VH I69M (antibody, IgG1, V domains shown, IgG1 format) VH: QVQLVQSGAEVKKPGASVKVSCKASGYTFTSYRMHWVRQAPGQGLEWMGYINPSTGYTEYNQKFQGRVTMTADKSISTAYMELSRLRSDDTAVYYCARGGGVFDYWGQGTLVTVSS VL: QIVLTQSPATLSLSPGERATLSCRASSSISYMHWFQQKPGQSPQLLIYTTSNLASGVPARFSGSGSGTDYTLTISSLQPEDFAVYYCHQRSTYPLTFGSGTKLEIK
Output: 2e+06

Input: // query kon value for entry anti-CD25 H1L1.14 (antibody, V domains shown, Single variant in the anti-CD25 H1L1 background; also called VL Y71F single variant) VH: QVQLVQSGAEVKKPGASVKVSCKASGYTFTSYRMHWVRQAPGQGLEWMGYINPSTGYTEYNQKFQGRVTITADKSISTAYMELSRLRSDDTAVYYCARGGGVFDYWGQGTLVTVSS VL: QIVLTQSPATLSLSPGERATLSCRASSSISYMHWFQQKPGQSPQLLIYTTSNLASGVPARFSGSGSGTDFTLTISSLQPEDFAVYYCHQRSTYPLTFGSGTKLEIK
Output: 1.8e+06
